biological target: human recombinant H-PGDS (Homo sapiens, UniProt O60760); experiment: Fluorescence intensity h-PGDS TBA enzyme assay; assay type: biochemical; conditions: Examples up to 622 (and 3a, 3b)
Sequence (O60760 whole entry): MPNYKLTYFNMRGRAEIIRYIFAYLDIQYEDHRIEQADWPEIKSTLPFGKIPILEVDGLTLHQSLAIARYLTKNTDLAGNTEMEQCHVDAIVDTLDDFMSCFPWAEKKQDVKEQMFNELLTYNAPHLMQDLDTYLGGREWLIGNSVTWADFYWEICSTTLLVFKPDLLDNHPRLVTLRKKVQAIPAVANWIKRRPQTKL
pIC50: −log10 of the molar value.

Molecule	pIC50
Cn1nccc1-c1nc(N2CCC(NC(=O)c3ccc(-c4cccc(F)c4)nc3)CC2)nc2ccccc12	7.89
CCc1cn2nc(N3CCC(NC(=O)c4ccc(-c5cccc(F)c5)nc4)CC3)ccc2n1	9.02
N#Cc1ccc(Cn2nnnc2N2CCC(NC(=O)c3ccc(-c4cccc(F)c4)nc3)CC2)cc1	9.03
COc1cc(CN2CCC(NC(=O)c3ccc(-c4cccc(F)c4)nc3)CC2)ccc1F	9.15
O=C(NC1CCN(C2CCC(=O)N(CC3CC3)CC2)CC1)c1ccc(-c2cccc(F)c2)nc1 (centres unmarked)	8.57
O=C(NC1CCN(c2ncccc2C(F)(F)F)CC1)c1ccc(-c2cccc(F)c2)nc1	8.83
CCCC(=O)N1CCC(NC(=O)c2ccc(-c3ccc(F)cc3)nc2)CC1	7.11
CS(=O)(=O)Nc1ccc(CN2CCC(NC(=O)c3ccc(-c4cccc(F)c4)nc3)CC2)cc1	9.07

Reference source: patent US7902373B2
